target: Human CB1 (Homo sapiens (Human), UniProt P21554); assay: Calcium mobilization assay (antagonist mode vs CP55,940); type: cell-based; conditions: CHO-RD-HGA16 cells stably expressing human CB1; against EC50 concentration of CP55,940; mean ± SEM, at least three experiments
Sequence (P21554 whole entry): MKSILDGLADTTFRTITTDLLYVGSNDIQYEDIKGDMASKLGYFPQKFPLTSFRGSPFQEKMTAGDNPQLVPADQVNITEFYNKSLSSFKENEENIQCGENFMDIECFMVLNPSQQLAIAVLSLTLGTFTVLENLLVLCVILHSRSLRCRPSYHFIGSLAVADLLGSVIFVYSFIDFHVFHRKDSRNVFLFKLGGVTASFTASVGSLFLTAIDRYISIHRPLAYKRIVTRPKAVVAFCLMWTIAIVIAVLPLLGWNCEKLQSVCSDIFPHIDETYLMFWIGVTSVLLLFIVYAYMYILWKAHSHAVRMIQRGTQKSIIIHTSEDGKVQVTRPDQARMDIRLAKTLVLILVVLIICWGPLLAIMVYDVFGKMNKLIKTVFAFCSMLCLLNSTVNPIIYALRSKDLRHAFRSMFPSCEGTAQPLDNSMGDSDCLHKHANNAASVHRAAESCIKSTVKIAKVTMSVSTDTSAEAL
Quantity: IC50 (nM)

O=c1c(NCCc2ccccc2Cl)c(Nc2ccc(Cl)cc2)c1=O | 1290

a. O=c1c(Nc2ccc(Cl)cc2)c(Nc2cccc(-c3ccccc3)c2)c1=O
b. O=c1c(NCCc2ccc(C(F)(F)F)cc2)c(Nc2ccc(Cl)cc2)c1=O
c. O=c1c(NCCc2ccccc2C(F)(F)F)c(Nc2ccc(Cl)cc2)c1=O
d. CCN(CC)c1ccc(CCNc2c(Nc3ccc(Cl)cc3)c(=O)c2=O)cc1
e. O=c1c(Nc2ccc(Cl)cc2)c(Nc2cccc(-c3cscn3)c2)c1=O
Rank the items in ascending order with respect to IC50. Your reply should list the labels following the order given in the request.
e, b, a, d, c
(e: 154 nM, b: 275 nM, a: 408 nM, d: 639 nM, c: 933 nM)

A. O=c1c(NCCc2ccc(F)cc2F)c(Nc2ccc(Cl)cc2)c1=O
B. O=c1c(NCCc2ccc(Cl)cc2)c(Nc2ccc(Cl)cc2)c1=O
C. CN(C)c1ccc(CCNc2c(Nc3ccc(Cl)cc3)c(=O)c2=O)cc1
Rank entries according to their IC50, from the largest number down. To answer, arrange all of the labels according to the requested order.
C, A, B
(C: 535 nM, A: 362 nM, B: 222 nM)

====

target: Human CB1 (Homo sapiens (Human)); assay: Calcium mobilization assay (antagonist mode vs CP55,940); assay type: cell-based; settings: CHO-RD-HGA16 cells stably expressing human CB1; against EC50 concentration of CP55,940; mean ± SEM, at least three experiments
pIC50: −log10 of the molar value.
Quantity: pIC50

Would you please look over these solved cases?
CN(C)c1cccc(CCNc2c(Nc3ccc(Cl)cc3)c(=O)c2=O)c1 | 5.68
O=c1c(NCCc2cccc(O)c2)c(Nc2ccc(Cl)cc2)c1=O | 5.68
O=c1c(NCCc2cccs2)c(Nc2ccc(Cl)cc2)c1=O | 6.40

I. O=c1c(Nc2ccc(Cl)cc2)c(Nc2cccc(-c3ccsc3)c2)c1=O
II. O=c1c(NCCc2ccccc2F)c(Nc2ccc(Cl)cc2)c1=O
// compare measured pIC50, left I , right II , return larger Kindly state the label of the option you pick.
II
(II: 6.56, I: 6.33)

====

target: UniProt P21554; assay: Calcium mobilization assay (antagonist mode vs CP55,940); assay type: cell-based; details: CHO-RD-HGA16 cells stably expressing human CB1; against EC50 concentration of CP55,940; mean ± SEM, at least three experiments
pIC50: −log10 of the molar value.
Quantity: pIC50

O=c1c(NCCc2ccc(Br)cc2)c(Nc2ccc(Cl)cc2)c1=O [Compound 38] | 6.48
Cc1ccc(CCNc2c(Nc3ccc(Cl)cc3)c(=O)c2=O)cc1C [Compound 42] | 6.39
Cc1ccccc1CCNc1c(Nc2ccc(Cl)cc2)c(=O)c1=O [Compound 35] | 6.45
O=c1c(NCCc2cccc(C(F)(F)F)c2)c(Nc2ccc(Cl)cc2)c1=O [Compound 20] | 6.44
CC(=O)c1ccc(CCNc2c(Nc3ccc(Cl)cc3)c(=O)c2=O)cc1 [Compound 40] | 6.46
O=c1c(NCCc2cccc(Cl)c2)c(Nc2ccc(Cl)cc2)c1=O [Compound 7] | 6.89
